The following compounds are listed with their measured inhibition ratio% E. coli values.
Test system: Escherichia coli ATCC 25955
Assay Details: Antimicrobial activity
Format: cell-based
Run Parameters: 50 μg mL^−1; NA: not active
Note: unit % is implicit; provide only the numeric part.

Here's what some known entries look like.
Compound | inhibition ratio% E. coli / %
C=CCc1cc(/C=C2/SC(Nc3ccc(S(N)(=O)=O)cc3)=NC2=O)c(O)c(OC)c1 [Compound 4e] | 60.66
COc1cc(/C=C2/SC(Nc3ccc(S(N)(=O)=O)cc3)=NC2=O)ccc1O [Compound 4h] | 29.51
NS(=O)(=O)c1ccc(NC2=NC(=O)/C(=C\c3ccc(C(=O)O)cc3)S2)cc1 [Compound 4f] | 46.45

Form: compound = O=C(O)c1cn(C2CC2)c2cc(N3CCNCC3)c(F)cc2c1=O [Cip, ciprofloxacin, reference compound] ; inhibition ratio% E. coli = 99.1
